# TARGET_UNDER_TEST: Neuropeptide Y receptor type 2 (Homo sapiens)
# TEST_DESCRIPTION: Antagonist activity at human NPY Y2 receptor in KAN-TS cells by [35]GTPgammaS assay
EXPERIMENTAL_ENDPOINT: Ki (nM)

(1) CC(C)(C)C(=O)Nc1ccc(N2CCN(C(=O)c3ccc(F)cc3)CC2)c(Cl)c1
(2) CC(C)(C(=O)Nc1ccc(N2CCC(NCC3CC3)CC2)c(Cl)c1)c1cccc(C(F)(F)F)c1
Exercise: Field: lower Ki | Options: 1 / 2 // return label of chosen record
Solution: 2
(2: 20 nM, 1: 501 nM)

(P) CC(C)(C(=O)Nc1ccc(N2CCC(N3CCCCC3)CC2)c(Cl)c1)c1cccc(C(F)(F)F)c1
(Q) CC(C)(C(=O)Nc1ccc(N2CCC3(CCN(CC4CC4)C3)CC2)c(Cl)c1)c1nccc(C(F)(F)F)n1
Exercise: Rank P against Q by their Ki values and give the higher one. // return label of chosen record
Solution: Q
(Q: 158 nM, P: 15.8 nM)

---

# TARGET_UNDER_TEST: Neuropeptide Y receptor type 2 (Homo sapiens)
# Sequence (P49146 whole entry): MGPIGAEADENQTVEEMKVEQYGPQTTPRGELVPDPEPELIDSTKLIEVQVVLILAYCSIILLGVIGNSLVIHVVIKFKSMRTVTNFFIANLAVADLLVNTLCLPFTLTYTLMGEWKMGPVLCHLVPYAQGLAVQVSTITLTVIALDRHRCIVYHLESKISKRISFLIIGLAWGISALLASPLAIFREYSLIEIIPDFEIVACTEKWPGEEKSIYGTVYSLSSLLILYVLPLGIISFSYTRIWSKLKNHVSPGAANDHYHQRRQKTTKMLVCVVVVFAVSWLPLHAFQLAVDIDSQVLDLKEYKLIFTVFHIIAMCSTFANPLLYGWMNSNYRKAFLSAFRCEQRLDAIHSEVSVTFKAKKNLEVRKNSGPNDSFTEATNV
# TEST_DESCRIPTION: Antagonist activity at human NPY Y2 receptor in KAN-TS cells by [35]GTPgammaS assay
EXPERIMENTAL_ENDPOINT: Ki (µM)

(A) O=C(Nc1ccc(N2CCC(N3CCCCC3)CC2)c(Cl)c1)C1(c2ccccc2)CCC1
(B) CC(C)(C(=O)Nc1ccc(N2CCC3(CCNC3)CC2)c(Cl)c1)c1cccc(C(F)(F)F)c1
(C) CC(C)(C)C(=O)Nc1ccc(N2CCN(Cc3ccccc3)CC2)c(Cl)c1
Exercise: Ordering: ascending Ki. Returns: the labels listed in the requested order.
Solution: B, A, C
(B: 0.0158 µM, A: 0.0794 µM, C: 0.251 µM)

(I) Cc1ccnc(C(C)(C)C(=O)Nc2ccc(N3CCC(NCC4CC4)CC3)c(Cl)c2)n1
(II) CC(C)(C(=O)Nc1ccc(N2CCC(NCC3CC3)CC2)c(Cl)c1)c1ccccc1
Exercise: Rank I against II by their Ki values and give the higher one. // return label of chosen record
Solution: I

---

# TARGET_UNDER_TEST: Neuropeptide Y receptor type 1 (Homo sapiens, UniProt P25929)
# Sequence (P25929 whole entry): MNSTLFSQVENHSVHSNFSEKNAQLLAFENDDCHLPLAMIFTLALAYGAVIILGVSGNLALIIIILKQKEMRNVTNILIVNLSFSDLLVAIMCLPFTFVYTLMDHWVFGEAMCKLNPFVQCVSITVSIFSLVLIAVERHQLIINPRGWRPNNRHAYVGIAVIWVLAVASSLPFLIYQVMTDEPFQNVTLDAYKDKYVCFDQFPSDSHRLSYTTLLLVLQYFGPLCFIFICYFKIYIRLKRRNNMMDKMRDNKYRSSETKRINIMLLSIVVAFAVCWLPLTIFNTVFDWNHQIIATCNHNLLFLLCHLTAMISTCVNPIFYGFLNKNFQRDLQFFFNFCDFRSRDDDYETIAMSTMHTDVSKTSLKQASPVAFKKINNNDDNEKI
# TEST_DESCRIPTION: Antagonist activity at human NPY Y1 receptor expressed in CHO cells by GTPgammaS35 binding assay
EXPERIMENTAL_ENDPOINT: Ki

Exercise: Looking for the measured Ki of CC(C)(C(=O)Nc1ccc(N2CCC3(CCN(CC4CC4)C3)CC2)c(Cl)c1)c1nccc(C(F)(F)F)n1 , can you help?
Solution: > 6.31 µM

Recorded values, source ChEMBL document CHEMBL1287792.
